# assay_text: NCI Yeast Anticancer Drug Screen. Data for the mlh1 rad18 strain (AID 175)
# run_conditions: S. cerevisiae mlh1 rad18 strain growth inhibition; at 50.0 µM
This is part of a sample that, as a whole, favours compounds with a hit. Of some 79,000 tested, about 15% had one in any assay. Active and inactive are the calls of the source. Cut-off read from the data, not from the text of the source: active = growth inhibition above about 70%; inactive = the rest.
Entry note: the call must match one of Y (active), N (inactive)

Answered cases to consult:
>  <compound>
COc1cc(-c2ccc(-[n+]3nc(-c4ccc([N+](=O)[O-])cc4)nn3-c3ccc([N+](=O)[O-])cc3)c(OC)c2)ccc1-[n+]1nc(-c2ccc([N+](=O)[O-])cc2)nn1-c1ccc([N+](=O)[O-])cc1

>  <category_label>
Y

$$$$
>  <compound>
CCCCCCCCCCCCCCCc1ccc(C(=O)C[n+]2ccccc2)cc1

>  <category_label>
Y

$$$$
>  <compound>
Cc1nn(CCO)c(C)c1N=[N+]([O-])c1c(C)nn(CCO)c1C

>  <category_label>
Y

$$$$
>  <compound>
CC(C)(C)c1ccc(CCO)cc1

>  <category_label>
N

$$$$
>  <compound>
Oc1ccc(Cl)cc1C(c1cc(Cl)ccc1O)C(Cl)(Cl)Cl

>  <category_label>
Y

$$$$
>  <compound>
CCC(C)C(N)C(=O)NC(CC(N)=O)C(=O)NC(CC(C)C)C(=O)NC(CCCCN)C(=O)NC(C)C(=O)NC(CC(C)C)C(=O)NC(C)C(=O)NC(C)C(=O)NC(CC(C)C)C(=O)NC(C)C(=O)NC(CCCCN)C(=O)NC(CCCCN)C(=O)NC(C(=O)NC(CC(C)C)C(N)=O)C(C)CC (stereo not drawn)

>  <category_label>
Y

$$$$
>  <compound>
Cc1ccc(/C=C2\CNC/C(=C\c3ccc(C)cc3)C2=O)cc1

>  <category_label>
Y

$$$$

Each compound tested received a call. Report the one for CC1C(c2ccccc2)OCCN1C(=S)Nc1ccc(S(=O)(=O)N2CCCCC2)cc1 (stereo not drawn) .
Y

###

# assay_text: NCI Yeast Anticancer Drug Screen. Data for the cln2 rad14 strain (AID 165);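 note: 0% = growth equal to vehicle treated cultures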
# run_conditions: S. cerevisiae cln2 rad14 strain, at 50.0 µM, active compounds read high
# Experimental: Growth inhibition of yeast strains with defined genetic alterations is measured as a screen for potential anti-cancer activity. Selected strains with alterations in DNA damage repair or cell cycle control were exposed to compounds and growth inhibition was measured relative to vehicle treated controls. The strain used in this assay is cln2 rad14
The panel holds about 79,000 compounds, 15% with a hit somewhere; the sample as a whole holds those more often. *1 amine or outer side, *2 acyl side, *3 side chain or, on linkers, in order; H or OH if unused. Where a SMILES comes first, the peptide text is derived from it. Bridges are numbered along the chain shown (N, C = ends). Roman numbers before positions name the chains, in order. [ ]: non-standard residue; d: D form. Actinocin(1to9) = Cc1c2oc3c(C)ccc(C(=O)[*:2])c3nc-2c(C(=O)[*:1])c(N)c1=O; NMeV = CN[CH](C(=O)O)C(C)C; Sar = CNCC(=O)O
We begin with a simple list: items and their reported growth inhibition.
Your answer should be a plain number; it is taken to be in %.

Previously resolved entries follow.
>  <compound>
COc1cc(/C=C/C(=O)CC(=O)/C=C/c2ccc(O)c(OC)c2)ccc1O

>  <readout_value>
84.3

$$$$
>  <compound>
CCC(C)C1NC(=O)C(NC(=O)c2c3nc4c(C(=O)NC5C(=O)NC(C(C)CC)C(=O)N6CCCC6C(=O)N(C)CC(=O)N(C)C(C(C)C)C(=O)OC5C)ccc(C)c4oc-3c(C)c(=O)c2N)C(C)OC(=O)C(C(C)C)N(C)C(=O)CN(C)C(=O)C2CCCN2C1=O (configuration not stated) (I: TIP[Sar][NMeV] / II: TIP[Sar][NMeV]; ester I:1-I:C, II:1-II:C; linker I:N-II:N via Actinocin(1to9); configuration not given here)

>  <readout_value>
90.7

$$$$
>  <compound>
S=c1[nH]c2cc(Cl)ccc2s1

>  <readout_value>
-2.15

$$$$
>  <compound>
CC/C(=C(/CC)c1ccc(O)cc1)c1ccc(O)cc1

>  <readout_value>
98

$$$$
>  <compound>
COc1cc2c(c(OC)c1OC)-c1ccc(NCc3ccccc3)c(=O)cc1[C@@H](NC(C)=O)CC2

>  <readout_value>
73.7

$$$$

Note: attention shifts to another entry.
Using the record for COC(=O)[C@]1(C)CCC[C@]2(C)c3ccc(C(C)C)cc3C(=O)[C@@H](Br)[C@@H]12 , state its measured growth inhibition.
22.1
